Each recorded value in this set is attributed to ChEMBL document CHEMBL1165962.

# Tested on: HCT-116
# Procedure Details: Cytotoxicity against human HCT116 cells
# Type: functional, cell-based
Items are presented alongside their recorded IC50.

C[C@]12CCC[C@@](C)(C(=O)O)[C@@H]1CC[C@]13C[C@@H](C=C[C@@H]12)[C@@](C)(O)C3 | > 31.4 µM
C[C@]12C[C@]34CC[C@@H]5[C@](C)([C@H](O)CC[C@@]5(C)C(=O)O)[C@@H]3C[C@H]1[C@H]2C4 | > 31.4 µM
C[C@]12CCC[C@@](C)(C(=O)O)[C@@H]1CC[C@]13C[C@@H]4[C@H](C[C@H]12)[C@]4(CO)C3 | > 31.4 µM

Switching to the query record.
CC1=C[C@]23CC[C@@H]4[C@](C)([C@H](O)CC[C@@]4(C)C(=O)O)[C@H]2[C@H]2[C@H](C3)[C@@H]12 has a reported IC50 of > 31.6 µM
